# target.desc: EGFR (d746-750 (d19)/T790M) (Homo sapiens (Human), UniProt P00533, DEL746-750/T790M)
# Sequence (P00533 other isoform, or with tags, fused parts or gaps T790M/del 1-668/del 746-750 limits assumed): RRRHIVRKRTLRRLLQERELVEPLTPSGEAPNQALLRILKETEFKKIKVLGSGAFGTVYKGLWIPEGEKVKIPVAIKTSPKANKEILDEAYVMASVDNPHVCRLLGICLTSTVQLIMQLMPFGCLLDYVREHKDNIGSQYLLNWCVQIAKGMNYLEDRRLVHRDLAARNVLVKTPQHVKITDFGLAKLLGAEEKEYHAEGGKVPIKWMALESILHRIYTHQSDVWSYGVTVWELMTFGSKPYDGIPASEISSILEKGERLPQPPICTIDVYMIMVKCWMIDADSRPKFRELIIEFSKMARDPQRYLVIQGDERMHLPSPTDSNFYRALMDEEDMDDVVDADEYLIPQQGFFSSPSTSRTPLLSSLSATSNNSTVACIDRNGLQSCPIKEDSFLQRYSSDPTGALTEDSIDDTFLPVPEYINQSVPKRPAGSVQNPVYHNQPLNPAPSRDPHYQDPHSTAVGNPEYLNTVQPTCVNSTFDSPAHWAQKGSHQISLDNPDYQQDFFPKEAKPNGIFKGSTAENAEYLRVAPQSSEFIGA
# assay.overview: Inhibitory activity for EGFR (d746-750 (d19)/T790M) kinase
# settings: ATP 5 μM
measured.attribute: pIC50
One number for each entry, as −log10 of the molar value.

{"columns": ["molecule", "measured.attribute", "test.result"],
 "data": [
  ["Cc1cc2cc(n1)-c1cnn(C)c1OCCC[C@@H](C1CC1)CN1/C(=N/C2=O)Nc2ccc(NCCN3CCCC3)cc21", "pIC50", 11.07],
  ["Cc1cc2cc(n1)-c1cnn(C)c1OCCC[C@@H](C1CC1)CN1/C(=N/C2=O)Nc2ccc(NC(C)CN(C)C)cc21 (stereo partly shown)", "pIC50", 11.10],
  ["Cc1cc2cc(n1)-c1cnn(C)c1OCCC[C@@H](C1CC1)CN1/C(=N/C2=O)Nc2cc(NC3CN(C)C3)ccc21", "pIC50", 11.01],
  ["Cc1cc2cc(n1)-c1cnn(C)c1OCCC[C@@H](C1CC1)CN1/C(=N/C2=O)Nc2ccc(NCCCN3CCCCC3)cc21", "pIC50", 11.00],
  ["Cc1cc2cc(n1)-c1cnn(C)c1OCCC[C@@H](C1CC1)CN1/C(=N/C2=O)Nc2cc(NCC3(C)COC3)ccc21", "pIC50", 10.85],
  ["Cc1cc2cc(n1)-c1cnn(C)c1OCCC[C@@H](C1CC1)CN1/C(=N/C2=O)Nc2ccc(NCCN(C)C)cc21", "pIC50", 11.14]
]}

Pending molecule:
Record Cc1cc2cc(n1)-c1cnn(C)c1OCCC[C@@H](C1CC1)CN1/C(=N/C2=O)Nc2cc(NC3COC3(C)C)ccc21 (stereo partly shown) has EGFR (d746-750 (d19)/T790M) (Homo sapiens (Human), UniProt P00533, DEL746-750/T790M) pIC50 equal to 10.52
